Origin of the recorded values: patent US20070105771A1

biological target: T1, Purified recombinant human CD26 (rhDipeptidyl peptidase IV), R&D Systems CAT #1180-SE (human, UniProt P27487 29-766); assay: SPR (Biacore), Fab
T1 construct: Bought recombinant protein; also called hu-CD26; soluble human CD26
T1 sequence (P27487 29-766 limits assumed): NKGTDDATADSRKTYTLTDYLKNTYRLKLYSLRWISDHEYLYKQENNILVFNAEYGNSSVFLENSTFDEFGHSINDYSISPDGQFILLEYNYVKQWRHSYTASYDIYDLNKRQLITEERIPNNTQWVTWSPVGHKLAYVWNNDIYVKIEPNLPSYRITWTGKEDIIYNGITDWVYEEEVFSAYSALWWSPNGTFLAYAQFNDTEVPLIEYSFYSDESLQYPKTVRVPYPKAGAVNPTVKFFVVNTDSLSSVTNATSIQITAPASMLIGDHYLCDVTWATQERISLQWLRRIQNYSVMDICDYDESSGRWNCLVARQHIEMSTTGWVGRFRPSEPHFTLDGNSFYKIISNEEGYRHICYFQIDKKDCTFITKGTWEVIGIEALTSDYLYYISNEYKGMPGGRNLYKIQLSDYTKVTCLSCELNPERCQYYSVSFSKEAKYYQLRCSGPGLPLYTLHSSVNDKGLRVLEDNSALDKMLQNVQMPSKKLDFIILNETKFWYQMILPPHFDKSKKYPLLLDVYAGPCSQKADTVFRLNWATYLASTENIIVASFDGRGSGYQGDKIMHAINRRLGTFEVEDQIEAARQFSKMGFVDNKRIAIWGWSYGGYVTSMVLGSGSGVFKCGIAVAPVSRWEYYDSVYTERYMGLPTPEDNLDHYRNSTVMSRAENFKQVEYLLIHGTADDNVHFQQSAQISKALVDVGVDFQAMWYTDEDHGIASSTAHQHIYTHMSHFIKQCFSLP
measuredAttribute: kon (M⁻¹ s⁻¹)
The reply should contain only the number, in M⁻¹ s⁻¹.

Check the records and state kon for Fab comprising X388 VH and CM03 VL (Fab, V domains shown, Fab made in E. coli) VH: EVQLVQSGGGLKQPGETLRLSCTASGYSLTTYGVHWVRQAPGKGLEWMGVIWGDGRTDYDSSFMSRVTISKDTSKSTAYLQLNSLRAEDTAVYYCTRNRHDWFDYWGQGTTVTVSS VL: DIQMTQSPSSLSASLGDRVTITCSASQGIRNSLNWYQQKPDGAVKLLIYYSSNLHSGVPSRFSGSGSGTDFSLTISNLEPEDIATYYCQQSIKLPFTFGSGTKLEIK
235000
